assayed-system: AcCYP51 (Acanthamoeba castellanii, UniProt L8GJB3)
assay-notes: CYP51 reconstitution assay, AfCPR1 redox partner, products by GC-MS
Format: biochemical
applied-conditions: CYP51 reconstitution assay, 50 μM sterol, AfCPR redox partner
assay-metric: AcCYP51 AfCPR kcat
Please answer using the number first and the unit second.

Below, each entry is followed by its recorded AcCYP51 AfCPR kcat result.
Need AcCYP51 AfCPR kcat of C=C(CCC(C)C1CCC2(C)C3=C(CCC12C)C1(C)CCC(O)C(C)(C)C1CC3)C(C)C (centres unmarked) , thanks.
0.0533 ± 0.00067 s⁻¹

Can you handle CC(C)=CCC[C@@H](C)[C@H]1CC[C@@]2(C)C3=C(CC[C@]12C)[C@@]1(C)CC[C@H](O)[C@@H](C)[C@@H]1CC3 next?
0 s⁻¹

Can you handle C=C(CC[C@@H](C)[C@H]1CC[C@H]2C3=CC[C@H]4[C@H](C)[C@@H](O)CC[C@]4(C)[C@H]3CC[C@]12C)C(C)C next?
0 s⁻¹

Can you handle C=C(CC[C@@H](C)[C@H]1CC[C@@]2(C)[C@@H]3CC[C@H]4C(C)(C)[C@@H](O)CC[C@@]45C[C@@]35CC[C@]12C)C(C)C next?
0 s⁻¹

Can you handle C=C(CC[C@@H](C)[C@H]1CC[C@@]2(C)C3=C(CC[C@]12C)[C@@]1(C)CC[C@H](O)[C@@H](C)[C@@H]1CC3)C(C)C next?
0.127 ± 0.00083 s⁻¹

Here is another molecule to look at.
Need AcCYP51 AfCPR kcat of CC(C)=CCC[C@@H](C)[C@H]1CC[C@@]2(C)C3=C(CC[C@]12C)[C@@]1(C)CC[C@H](O)C(C)(C)[C@@H]1CC3 , thanks.
0.0283 ± 0.00017 s⁻¹

###

Dear all, this message contains Kd results, target or system AcCYP51 (Acanthamoeba castellanii, UniProt L8GJB3).
Give the number; µM is assumed, so skip it.

Need Kd of CC(C)=CCC[C@@H](C)[C@H]1CC[C@@]2(C)[C@@H]3CC[C@H]4C(C)(C)[C@@H](O)CC[C@@]45C[C@@]35CC[C@]12C [compound 21, Cycloart-24(25)-enol] , thanks.
18

Can you handle C=C(CC[C@@H](C)[C@H]1CC[C@@]2(C)C3=C(CC[C@]12C)[C@@]1(C)CC[C@H](O)[C@@H](C)[C@@H]1CC3)C(C)C [compound 10] next?
41

Can you handle C=C(CCC(C)C1CCC2(C)C3=C(CCC12C)C1(C)CCC(O)C(C)(C)C1CC3)C(C)C (stereo not shown) [compound 32, Lanosta-8,24(28)-dienol] next?
51

Here is another compound to look at.
Need Kd of CC(C)=CCC[C@@H](C)[C@H]1CC[C@@]2(C)C3=C(CC[C@]12C)[C@@]1(C)CC[C@H](O)C(C)(C)[C@@H]1CC3 [compound 33, Lanosta-8,24(25)-dienol] , thanks.
46

###

assayed-system: AcCYP51 (Acanthamoeba castellanii)
assay-notes: CYP51 reconstitution assay, AfCPR1 redox partner, products by GC-MS
Assay type: biochemical
applied-conditions: CYP51 reconstitution assay, 50 μM sterol, AfCPR redox partner
Parameter: AcCYP51 AfCPR kcat. Scope: all listed entries.
Give the number; s⁻¹ is assumed, so skip it.

Below, each entry is followed by its recorded AcCYP51 AfCPR kcat result.
Need AcCYP51 AfCPR kcat of CC(C)=CCC[C@@H](C)[C@H]1CC[C@@]2(C)[C@@H]3CC[C@H]4C(C)(C)[C@@H](O)CC[C@@]45C[C@@]35CC[C@]12C [compound 21, Cycloart-24(25)-enol] , thanks.
0

Can you handle C=C(CC[C@@H](C)[C@H]1CC[C@@]2(C)[C@@H]3CC[C@H]4[C@H](C)[C@@H](O)CC[C@@]45C[C@@]35CC[C@]12C)C(C)C [compound 24, 4α-Methylcycloart-24(28)-enol] next?
0.00067

Can you handle CC(C)CCC[C@@H](C)[C@H]1CC[C@@]2(C)C3=C(CC[C@]12C)[C@@]1(C)CC[C@H](O)C(C)(C)[C@@H]1CC3 [compound 34, Lanost-8-enol] next?
0.0333

Can you handle CC(C)=CCCC(C)C1CCC2(C)C3=CCC4C(C)(C)C(O)CCC4(C)C3CCC12C (centres unmarked) [compound 36, Lanosta-7,24(25)-dienol] next?
0

Here is another compound to look at.
Need AcCYP51 AfCPR kcat of CC(C)=CCC[C@@H](C)[C@H]1CC[C@@]2(C)C3=C(CC[C@]12C)[C@@]1(C)CC[C@H](O)C[C@@H]1CC3 [compound 35, 14α-Methylcholest-8,24(25)-dienol] , thanks.
0.0267
